Target: human α-thrombin (Homo sapiens, UniProt P00734)
Structures can show the parent of a compound that is named as a salt.
measured property: pKi
Entry type: numeric. Quantity: pKi, the -log10 of concentration in molar units.

Problem: Missing value: pKi, human α-thrombin (Homo sapiens, UniProt P00734), entry Cc1nc(N)ccc1CNC(=O)Cc1c(Cl)ccc(NCC(F)(F)c2ccc(F)c3ccccc23)c1F [Example 5, Hydrochloride Salt] . Fill in?
Result: 8.55

Just for reference, patent US6900231B2 is where these values come from.
